target: HLA-B*5301 (human)
Each entry below lists one item and its recorded binding affinity ratio (IC50 of standard peptide / IC50 of test peptide) value.
Give the value as a plain number.

Worked cases, binding affinity ratio (IC50 of standard peptide / IC50 of test peptide) given:
WPYLESRITV (modifications not checked) [HPV18 E1 583 peptide …] ... 0.014
RPIVQFLRY (modifications not checked) [HPV18 E1 447 peptide …] ... 0.023
QPFILYAHI (modifications not checked) [HPV18 E1 263 peptide …] ... 0.0017
QPPKLRSSVA (modifications not checked) ... 0.0002

Would you kindly look at the next entry?
input: Field request: binding affinity ratio (IC50 of standard peptide / IC50 of test peptide) | item: QPPKLRSSV (modifications not checked)
output: 0.0002
